# System: Human immunodeficiency virus 1
# Experiment description: Antiviral activity against wild type HIV-1 IIIB infected in human MT4 cells assessed as protection against virus-induced cytopathic effect measured after 5 days by MTT assay
# Assay type: functional, organism-based
# Test conditions: Human immunodeficiency virus 1, IIIB, MT4, 120 h
Below, each entry is listed with its recorded pEC50.
Scale: negative log10 of molar concentration, which is what pEC50 denotes.

Field: example entries. Status: answers known.
* COC(=O)c1cccc(-n2cc(-c3ccc(Nc4nc(Oc5c(C)cc(C#N)cc5C)c5sccc5n4)cc3)nn2)c1 | 5.90
* Cc1cc(C#N)cc(C)c1Oc1nc(Nc2ccc(-c3cn(S(=O)(=O)n4ccnc4)nn3)cc2)nc2ccsc12 | 8.00
* Cc1cn([C@H]2C[C@H](N=[N+]=[N-])[C@@H](CO)O2)c(=O)[nH]c1=O | 7.52

As a next step, examine the molecule that follows.
Query pEC50 for `CCOC(=O)c1ccc(Cn2cc(-c3ccc(Nc4nc(Oc5c(C)cc(C#N)cc5C)c5sccc5n4)cc3)nn2)cc1`
6.27

----------
# Target entity: Human immunodeficiency virus type 1 reverse transcriptase (Human immunodeficiency virus 1)
# Experiment description: Inhibition of HIV-1 reverse transcriptase at 0.267 uM incubated for 1 hrs in presence of biotin-labeled dNTPs by ELISA assay relative to control
Reported endpoint: inhibition (%)
Give just the numeric value; % need not be written.

Field: example entries. Status: answers known.
* Cc1cc(C#N)cc(C)c1Oc1nc(Nc2ccc(-c3cn(CSc4ccccc4)nn3)cc2)nc2ccsc12 | 31.9
* Cc1cc(C#N)cc(C)c1Oc1nc(Nc2ccc(-c3cn(Cc4ccccc4Cl)nn3)cc2)nc2ccsc12 | 23.1
* Cc1cc(C#N)cc(C)c1Oc1nc(Nc2ccc(-c3cn(CS(=O)(=O)c4ccccc4)nn3)cc2)nc2ccsc12 | 25.6
* Cc1cc(C#N)cc(C)c1Oc1nc(Nc2ccc(-c3cn(S(=O)(=O)n4ccnc4)nn3)cc2)nc2ccsc12 | 66.5
* COc1cccc(Cn2cc(-c3ccc(Nc4nc(Oc5c(C)cc(C#N)cc5C)c5sccc5n4)cc3)nn2)c1 | 0.4

Query inhibition for `Cc1cc(C#N)cc(C)c1Oc1nc(Nc2ccc(-c3cn(Cc4ccccc4[N+](=O)[O-])nn3)cc2)nc2ccsc12`
24.8

Query inhibition for `Cc1cc(C#N)cc(C)c1Oc1nc(Nc2ccc(-c3cn(Cc4ccc(C(F)(F)F)cc4F)nn3)cc2)nc2ccsc12`
63.6

Query inhibition for `Cc1cc(C#N)cc(C)c1Oc1nc(Nc2ccc(-c3cn(-c4ccc5c(c4)OCO5)nn3)cc2)nc2ccsc12`
50

----------
# System: Human immunodeficiency virus 1
# Experiment description: Antiviral activity against wild type HIV-1 IIIB infected in human MT4 cells assessed as protection against virus-induced cytopathic effect measured after 5 days by MTT assay
# Format: functional, organism-based
# Test conditions: Human immunodeficiency virus 1, IIIB, MT4, 120 h
Reported endpoint: pEC50
Scale: negative log10 of molar concentration, which is what pEC50 denotes.

• Cc1cc(C#N)cc(C)c1Oc1nc(Nc2ccc(-c3cn(Cc4ccc(B(O)O)cc4)nn3)cc2)nc2ccsc12 = 6.80
• Cc1cc(C#N)cc(C)c1Oc1nc(Nc2ccc(-c3cn(-c4ccc(C(N)=O)cc4)nn3)cc2)nc2ccsc12 = 6.82
• Cc1cc(C#N)cc(C)c1Oc1nc(Nc2ccc(-c3cn(Cc4ccc(S(C)(=O)=O)cc4)nn3)cc2)nc2ccsc12 = 7.40

As a next step, examine the compound that follows.
Query pEC50 for `Cc1cc(C#N)cc(C)c1Oc1nc(Nc2ccc(-c3cn(CC(=O)Nc4ccc(C(F)(F)F)cc4)nn3)cc2)nc2ccsc12`
5.69

Just for reference, ChEMBL document CHEMBL5329212 is where these values come from.
